Just for reference, patent US7205295B2 is where these values come from.

# pIC50 values compiled below
tested target: PI3Kγ (p101/p110γ protein) (Homo sapiens)
Construct: HA
assay overview: PI3Kγ In Vitro Kinase Assay
condition info: purified recombinant p101/p110γ with G protein β1/γ2 subunits; 20 μM ATP, 25 μM PIP2; 20 minutes at room temperature
Quick note: pIC50 values are minus log10 of concentrations in mol/L.

CC(C)(C)c1cc(CN2C(=O)COc3ccc(C=C4SC(=S)NC4=O)cc32)cc(C(C)(C)C)c1 | 7.92
O=C1NC(=S)SC1=Cc1ccc2c(c1)N(Cc1ccc(OCc3ccccc3)cc1)C(=O)CO2 [Example 23] | 8.30
COc1cc(CN2C(=O)COc3ccc(C=C4SC(=S)NC4=O)cc32)cc(OC)n1 | 7.22
O=C1NC(=S)SC1=Cc1ccc2c(c1)N(CCc1ccc(Cl)cc1)C(=O)CO2 | 8.30
O=C1NC(=S)SC1=Cc1ccc2c(c1)N(Cc1cc(C(F)(F)F)cc(C(F)(F)F)c1)C(=O)CO2 [Example 185] | 6.99
O=C1NC(=O)C(=Cc2ccc3c(c2)N(Cc2ccccc2)C(=O)CO3)S1 | 8.52
CC(C)(C)c1cc(CO)cc(CN2C(=O)COc3c(F)cc(/C=C4\SC(=S)NC4=O)cc32)c1 | 8.00
Cc1cc(CN2C(=O)COc3ccc(C=C4SC(=S)NC4=O)cc32)cc(C(C)(C)C)c1 | 7.77

[Q] Notebook: pull reported pIC50 for PI3Kγ (p101/p110γ protein) (Homo sapiens), entry O=C1NC(=S)SC1=Cc1ccc2c(c1)N(Cc1ccc(C=Cc3ccccc3)cc1)C(=O)CO2
[A] 7.28

[Q] Notebook: pull reported pIC50 for PI3Kγ (p101/p110γ protein) (Homo sapiens), entry COCCOCOCc1cc(CN2C(=O)COc3ccc(/C=C4\SC(=S)NC4=O)cc32)cc(C(C)(C)C)c1
[A] 7.89

[Q] Notebook: pull reported pIC50 for PI3Kγ (p101/p110γ protein) (Homo sapiens), entry O=C1COc2ccc(C=C3SC(=S)N(c4ccccc4)C3=O)cc2N1Cc1ccc(Cl)s1
[A] 5.43

[Q] Notebook: pull reported pIC50 for PI3Kγ (p101/p110γ protein) (Homo sapiens), entry O=C1NC(=S)OC1=Cc1cc(F)c2c(c1)N(Cc1ccc(F)c(Cl)c1)C(=O)CO2
[A] 8.52

[Q] Notebook: pull reported pIC50 for PI3Kγ (p101/p110γ protein) (Homo sapiens), entry Cc1cncc(CN2C(=O)COc3ccc(C=C4SC(=S)NC4=O)cc32)c1
[A] 7.60

[Q] Notebook: pull reported pIC50 for PI3Kγ (p101/p110γ protein) (Homo sapiens), entry O=C1NC(=S)SC1=Cc1ccc2c(c1)N(Cc1cccc(Oc3ccccc3)c1)C(=O)CO2
[A] 8.05

###

# IC50 values compiled below
tested target: PI3Kγ (p101/p110γ protein) (Homo sapiens, UniProt P48736)
Construct: HA
Sequence (P48736 whole entry, species assumed): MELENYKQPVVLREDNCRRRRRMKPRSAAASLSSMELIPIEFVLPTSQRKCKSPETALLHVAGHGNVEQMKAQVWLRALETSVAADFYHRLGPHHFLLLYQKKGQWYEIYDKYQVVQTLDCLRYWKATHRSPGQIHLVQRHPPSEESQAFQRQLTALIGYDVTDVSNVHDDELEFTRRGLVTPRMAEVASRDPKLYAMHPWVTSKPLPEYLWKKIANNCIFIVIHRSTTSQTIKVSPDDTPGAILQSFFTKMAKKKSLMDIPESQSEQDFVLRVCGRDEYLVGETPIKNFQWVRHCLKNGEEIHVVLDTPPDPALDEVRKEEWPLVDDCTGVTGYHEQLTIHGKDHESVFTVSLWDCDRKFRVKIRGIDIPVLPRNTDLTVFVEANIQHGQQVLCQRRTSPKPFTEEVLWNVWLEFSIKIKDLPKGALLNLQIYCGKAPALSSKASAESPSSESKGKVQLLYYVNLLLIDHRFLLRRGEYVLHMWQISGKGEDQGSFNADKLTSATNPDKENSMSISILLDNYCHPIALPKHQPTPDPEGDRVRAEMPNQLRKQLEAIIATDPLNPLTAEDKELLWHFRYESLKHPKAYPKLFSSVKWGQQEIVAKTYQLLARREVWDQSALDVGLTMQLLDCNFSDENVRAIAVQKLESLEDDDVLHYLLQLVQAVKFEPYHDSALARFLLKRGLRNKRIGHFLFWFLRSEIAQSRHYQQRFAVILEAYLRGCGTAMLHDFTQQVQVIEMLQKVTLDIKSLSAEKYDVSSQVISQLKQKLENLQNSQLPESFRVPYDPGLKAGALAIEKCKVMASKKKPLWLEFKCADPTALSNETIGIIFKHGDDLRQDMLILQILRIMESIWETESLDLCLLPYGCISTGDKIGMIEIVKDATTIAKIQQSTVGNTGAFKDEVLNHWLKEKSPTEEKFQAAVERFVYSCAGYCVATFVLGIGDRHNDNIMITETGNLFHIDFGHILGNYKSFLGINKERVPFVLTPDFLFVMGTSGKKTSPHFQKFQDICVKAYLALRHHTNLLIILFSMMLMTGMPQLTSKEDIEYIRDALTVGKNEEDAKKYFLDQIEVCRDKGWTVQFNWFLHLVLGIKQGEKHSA
Sequence (Q8WYR1 whole entry partner, species assumed): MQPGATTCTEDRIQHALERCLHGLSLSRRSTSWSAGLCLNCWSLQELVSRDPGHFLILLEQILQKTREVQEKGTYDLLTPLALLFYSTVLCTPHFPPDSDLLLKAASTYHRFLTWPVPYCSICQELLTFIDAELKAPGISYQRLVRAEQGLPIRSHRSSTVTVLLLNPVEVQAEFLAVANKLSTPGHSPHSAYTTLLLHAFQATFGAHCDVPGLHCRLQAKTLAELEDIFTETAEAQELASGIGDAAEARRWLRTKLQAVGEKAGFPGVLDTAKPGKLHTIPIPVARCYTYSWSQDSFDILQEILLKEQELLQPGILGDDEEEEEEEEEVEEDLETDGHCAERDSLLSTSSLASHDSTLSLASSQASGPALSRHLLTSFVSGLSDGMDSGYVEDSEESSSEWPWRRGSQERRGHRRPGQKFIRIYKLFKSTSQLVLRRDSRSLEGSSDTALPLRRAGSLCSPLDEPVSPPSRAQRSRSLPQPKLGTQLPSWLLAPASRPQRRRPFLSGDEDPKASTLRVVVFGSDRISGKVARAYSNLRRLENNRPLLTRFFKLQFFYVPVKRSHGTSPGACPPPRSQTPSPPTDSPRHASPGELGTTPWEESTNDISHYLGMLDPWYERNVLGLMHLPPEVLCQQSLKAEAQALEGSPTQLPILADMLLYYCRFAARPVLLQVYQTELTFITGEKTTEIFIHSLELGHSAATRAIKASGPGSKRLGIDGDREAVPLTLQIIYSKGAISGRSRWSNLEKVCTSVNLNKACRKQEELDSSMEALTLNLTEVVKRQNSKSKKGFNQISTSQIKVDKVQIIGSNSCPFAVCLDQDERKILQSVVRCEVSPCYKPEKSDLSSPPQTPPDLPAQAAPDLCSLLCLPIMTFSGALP
assay overview: PI3Kγ In Vitro Kinase Assay
condition info: purified recombinant p101/p110γ with G protein β1/γ2 subunits; 20 μM ATP, 25 μM PIP2; 20 minutes at room temperature

Worked cases, answers included:
Cc1cc(CN2C(=O)COc3ccc(C=C4SC(=S)NC4=O)cc32)cc(-c2c(C)noc2C)c1 [Example 117] | 40 nM
Cc1cc(CN2C(=O)COc3ccc(C=C4SC(=S)NC4=O)cc32)cc(C)n1 [Example 229] | 20 nM
CC(C)(C)c1cc(CN2C(=O)COc3c(F)cc(CC4SC(=S)NC4=O)cc32)cc(C(C)(C)O)c1 (stereo not shown) [Example 236] | 5 nM

[Q] Record request: IC50 value, item C[C@@H]1Oc2ccc(C=C3SC(=S)NC3=O)cc2N(Cc2cc(C(C)(C)C)cc(C(C)(C)C)c2)C1=O [Example 37]
[A] 1620 nM

[Q] Record request: IC50 value, item Cc1cc(CN2C(=O)COc3ccc(C=C4SC(=S)NC4=O)cc32)nn1C [Example 329]
[A] 28 nM

###

tested target: PI3Kγ (p101/p110γ protein) (Homo sapiens, UniProt P48736)
Construct: HA
assay overview: PI3Kγ In Vitro Kinase Assay
condition info: purified recombinant p101/p110γ with G protein β1/γ2 subunits; 20 μM ATP, 25 μM PIP2; 20 minutes at room temperature
quantity kind: IC50 (nM)
Give the quantity in nM, number only.

Worked cases, answers included:
Cc1cc(C#N)cc(CN2C(=O)COc3ccc(C=C4SC(=S)NC4=O)cc32)c1 | 30
O=C1NC(=S)SC1=Cc1ccc2c(c1)N(CCc1cccc(C(F)(F)F)c1)C(=O)CO2 | 9

Please examine the following record next.
[Q] Record request: IC50 value, item COc1cc(CN2C(=O)COc3ccc(C=C4SC(=S)NC4=O)cc32)cc(OC)c1
[A] 9

###

# pIC50 values compiled below
tested target: PI3Kγ (p101/p110γ protein) (Homo sapiens, UniProt P48736)
Construct: HA
assay overview: PI3Kγ In Vitro Kinase Assay
condition info: purified recombinant p101/p110γ with G protein β1/γ2 subunits; 20 μM ATP, 25 μM PIP2; 20 minutes at room temperature
Quick note: pIC50 values are minus log10 of concentrations in mol/L.

Worked cases, answers included:
CC(C)S(=O)(=O)c1cccc(CN2C(=O)COc3ccc(C=C4SC(=S)NC4=O)cc32)c1 | 7.80
CCN(CC)Cc1ccc(CN2C(=O)COc3ccc(C=C4SC(=S)NC4=O)cc32)cc1 | 7.85
O=C1NC(=S)SC1=Cc1ccc2c(c1)N(Cc1ccsc1)C(=O)CO2 | 7.52
CC(C)(C)c1cc(CN2C(=O)COc3c(F)cc(/C=C4\SC(=O)NC4=O)cc32)cc(C(C)(C)O)c1 | 8.15
O=C1NC(=S)SC1=Cc1ccc2c(c1)N(OCc1ccc(C(F)(F)F)cc1)C(=O)CO2 | 8.70
O=C1NC(=S)SC1=Cc1ccc2c(c1)N(CC1CC1)C(=O)CO2 | 7.59

[Q] Record request: pIC50 value, item O=C1NC(=S)SC1=Cc1cc(F)c2c(c1)N(Cc1cncc(Cl)c1)C(=O)CO2
[A] 7.33

###

tested target: PI3Kγ (p101/p110γ protein) (Homo sapiens)
Construct: HA
assay overview: PI3Kγ In Vitro Kinase Assay
condition info: purified recombinant p101/p110γ with G protein β1/γ2 subunits; 20 μM ATP, 25 μM PIP2; 20 minutes at room temperature
pIC50: −log10 of the molar value.
Label True when pIC50 is at or above 8; anything below gets False.

Below, 10 compounds whose answers are already recorded.
CC(C)CCN1C(=O)COc2ccc(C=C3SC(=S)NC3=O)cc21 | False
COC(=O)c1cc(C)cc(CN2C(=O)COc3ccc(C=C4SC(=S)NC4=O)cc32)c1 | False
O=C1NC(=S)SC1=Cc1ccc2c(c1)N(Cc1ccccn1)C(=O)CO2 | False
Cc1cc(CN2CCOCC2)cc(CN2C(=O)COc3ccc(C=C4SC(=S)NC4=O)cc32)c1 | False
Cc1cc(C)cc(CN2C(=O)COc3ccc(C=C4SC(=S)NC4=O)cc32)c1 [Example 150] | True
O=C(O)CN1C(=O)C(=Cc2ccc3c(c2)NC(=O)CO3)SC1=S | False
O=C1NC(=S)SC1=Cc1ccc2c(c1)N(CCc1ccc(Br)cc1)C(=O)CO2 | True
COc1cc(CN2C(=O)COc3ccc(C=C4SC(=S)NC4=O)cc32)cc(Cl)n1 | False
O=C1NC(=S)SC1=Cc1ccc2c(c1)N(CCCCCc1ccccc1)C(=O)CO2 | True
O=C1NC(=S)SC1=Cc1cc(Cl)c2c(c1)N(Cc1ccc(CN3CCCCC3)cc1)C(=O)CO2 | False

[Q] // inclusive: pIC50 at least 8? input: CC(C)(C)c1cc(CN2C(=O)COc3ccc(C=C4SC(=S)NC4=O)cc32)n(Cc2ccccc2)n1
[A] False

[Q] // inclusive: pIC50 at least 8? input: CC(C)(C)c1cc(CN2C(=O)COc3ccc(C=C4SC(=S)NC4=O)cc32)cc(C(C)(C)C)n1
[A] False

###

tested target: PI3Kγ (p101/p110γ protein) (Homo sapiens)
Construct: HA
assay overview: PI3Kγ In Vitro Kinase Assay
condition info: purified recombinant p101/p110γ with G protein β1/γ2 subunits; 20 μM ATP, 25 μM PIP2; 20 minutes at room temperature
pIC50: −log10 of the molar value.
Label criterion met when pIC50 is at or above 7; anything below gets criterion not met.

Below, 5 compounds whose answers are already recorded.
CC(C)(C)c1cc(CN2C(=O)COc3ccc(C=C4SC(=O)NC4=O)cc32)cc(C(C)(C)C)n1 | criterion not met
C[C@@H]1Oc2ccc(C=C3SC(=S)NC3=O)cc2N(Cc2ccc3ccccc3c2)C1=O | criterion not met
O=C1NC(=S)SC1=Cc1cnc2c(c1)N(Cc1ccccc1)C(=O)CO2 | criterion not met
CC(C)N(CCCN1C(=O)COc2c(F)cc(C=C3SC(=S)NC3=O)cc21)C(C)C | criterion not met
CC1CC(C)CN(CCCN2C(=O)COc3c(F)cc(C=C4SC(=S)NC4=O)cc32)C1 (centres unmarked) | criterion not met

[Q] // inclusive: pIC50 at least 7? input: O=C1COc2ccc(C=C3OC(=O)NC3=O)cc2N1
[A] criterion not met

[Q] // inclusive: pIC50 at least 7? input: CC(=O)c1cc(CN2C(=O)COc3ccc(C=C4SC(=S)NC4=O)cc32)cc(C(C)(C)C)c1
[A] criterion met

[Q] // inclusive: pIC50 at least 7? input: Cc1cccc(CCN2C(=O)COc3ccc(C=C4SC(=S)NC4=O)cc32)c1
[A] criterion met

[Q] // inclusive: pIC50 at least 7? input: Cc1cc(C=C2SC(=S)NC2=O)c(C)c2c1OCC(=O)N2
[A] criterion not met

[Q] // inclusive: pIC50 at least 7? input: O=C1NC(=S)S/C1=C\c1ccc2oc(=O)n(Cc3ccccc3)c2c1
[A] criterion not met
